details: human, in vivo
assay readout: Result (urine concentration) (ng/mL)
Give a bare numeral; the unit ng/mL is implied.

CN1CC[C@]23c4c5ccc(O)c4O[C@H]2C(=O)CC[C@@]3(O)[C@H]1C5    223
COc1ccc2c3c1O[C@H]1C(=O)CC[C@@]4(O)[C@@H](C2)N(C)CC[C@]314    544

-- ask For the compound COc1ccc2c3c1O[C@H]1C(=O)CC[C@H]4[C@@H](C2)N(C)CC[C@]314 [Hydrocodone] , what Result (urine concentration) is on record?
-- reply 864

-- ask Which measured Result (urine concentration) value corresponds to CN1CC[C@]23c4c5ccc(O)c4O[C@H]2[C@@H](O)C=C[C@H]3[C@H]1C5 ?
-- reply 104

-- ask Could you share which Result (urine concentration) value was measured for COc1ccc2c3c1O[C@H]1[C@@H](O)C=C[C@H]4[C@@H](C2)N(C)CC[C@@]341 ?
-- reply 327
